- TEST PROTOCOL: Experimentally obtained drug solubilities in gels
- Type: physicochemical
- MEASUREMENT SETUP: gel composition e.g LOIB 82.5%, SuBen 60%
PROPERTY NAME: Solubility

Batch of 2 compounds: report Solubility for each.
1. CCOCc1nc2c(N)nc3ccccc3c2n1CC(C)(C)O [Resiquimod (R848), Resiquimod]
2. CCNCc1nc2c(N)nc3ccccc3c2n1CC(C)(C)O [Gardiquimod]

## Result
1: >10 mg/g gel; 2: >1.5 mg/g gel

Batch of 2 compounds: report Solubility for each.
1. Cc1cccc(-c2[nH]ncc2-c2ccc3ncccc3n2)n1 [RepSox]
2. Cc1cccc(-c2nn3c(c2-c2ccnc4ccc(C(N)=O)cc24)CCC3)n1 [Galunisertib]

## Result
>8 mg/g gel
>8 mg/g gel
